The reported numbers originate from patent US10221171B2.

Quick reference: log10(IC50) of the listed items.
System: MCF-7
Experiment: MTT cell viability assay, MCF-7
Type: cell-based
Conditions: Homo sapiens, MCF7; MTT, 72-hour incubation; read-out: IC50/μM MCF-7
Protocol: Cells were then treated with compound at various concentrations in 0.2 mL media. After the 72-hour incubation period, cells were washed in PBS (3×100 μL), and 10 μL MTT reagent was added with 100 μL fresh media. Cells were then incubated for 4 hr in a humidified chamber at 37° C. with 5% CO2. Insoluble formazan crystals were solubilized by addition of 0.1 mL detergent solution (4 hr at room temp., dark). Resulting colored solutions were then quantified at an absorbance of 570 nm.
Reported property: log10(IC50) (log10 of the value in µM)

In [3]: df
Out[3]:
                                   compound  assay_value
0  CCn1c(=O)/c(=C2\Sc3cc(Br)ccc3N2C)s/c1=C\c1scc[n+]1Cc1ccsc1        -0.41
1  CCn1c(=O)/c(=C2\Sc3cc(OC)ccc3N2C)s/c1=C\c1scc[n+]1C(C)c1ccccc1 (centres unmarked)        -0.85
2  CCn1c(=O)/c(=C2\Sc3cc(Cl)ccc3N2C)s/c1=C\c1scc[n+]1[C@H](C)c1ccccc1        -0.43
3  CCn1c(=O)/c(=C2\Sc3cc(C(C)C)ccc3N2C)s/c1=C\c1scc[n+]1Cc1ccsc1C(=O)OC        -0.82
4  CCn1c(=O)/c(=C2\Sc3cc(OC)ccc3N2C)s/c1=C\c1scc[n+]1CCc1cccc(C(F)(F)F)c1        -0.17
5  CCn1c(=O)/c(=C2\Sc3cc(F)ccc3N2C)s/c1=C\c1scc[n+]1Cc1ccccc1S(C)(=O)=O         0.29
6  CCn1c(=O)/c(=C2\Sc3cc(C(C)C)ccc3N2C)s/c1=C\c1scc[n+]1Cc1ccc(C(F)(F)F)o1        -0.85
7  CCn1c(=O)/c(=C2\Sc3cc(C(C)C)ccc3N2C)s/c1=C\c1scc[n+]1C(C)c1ccccc1 (centres unmarked)        -0.89

====

System: MEF (C57BL/6)
Assay: MTT cell viability assay, MEF (C57BL/6)
Type: cell-based
Details: Mus musculus, 72 h, read-out: IC50/μM MEF (C57BL/6), MTT, 72-hour incubation
Quick reference: IC50 of the listed items.
Reported property: IC50 (µM)

>>> df
                                 test_smiles  unit_string  assay_value
 0  CCn1c(=O)/c(=C2\Sc3cc(OC)ccc3N2C)s/c1=C\c1scc[n+]1Cc1ccccc1Cl           µM         0.66
 1  CCn1c(=O)/c(=C2\Sc3cc(Cl)ccc3N2C)s/c1=C\c1scc[n+]1Cc1ccccc1SC(F)(F)F           µM          3.7
 2  CCn1c(=O)/c(=C2\Sc3cc(Cl)ccc3N2C)s/c1=C\c1scc[n+]1Cc1cccc(Cl)c1           µM         0.69
 3  CCc1ccc2c(c1)S/C(=c1/s/c(=C\c3scc[n+]3Cc3ccc(C(F)(F)F)o3)n(CC)c1=O)N2C.[Cl-]           µM          1.4
 4  C=CCn1c(=O)/c(=C2\Sc3cc(Cl)ccc3N2C)s/c1=C\c1scc[n+]1Cc1ccccc1           µM          2.4
 5  CCn1c(=O)/c(=C2\Sc3ccc(OC)cc3N2C)s/c1=C\c1scc[n+]1Cc1ccccc1OC(F)(F)F           µM          2.2
 6  CCn1c(=O)/c(=C2\Sc3cc([N+](=O)[O-])ccc3N2C)s/c1=C\c1scc[n+]1Cc1ccccc1           µM          2.8
 7  CCn1c(=O)/c(=C2\Sc3cc(Cl)ccc3N2C)s/c1=C\c1scc[n+]1Cc1ccc(Cl)cc1           µM          3.1
 8  CCn1c(=O)/c(=C2\Sc3cc(OC)ccc3N2C)s/c1=C\c1scc[n+]1Cc1ccccc1OC           µM         0.77
 9  CCn1c(=O)/c(=C2\Sc3cc(Cl)ccc3N2C)s/c1=C\c1scc[n+]1Cc1ccccc1C(=O)OC           µM          2.9
10  CCn1c(=O)/c(=C2\Sc3cc(SC)ccc3N2C)s/c1=C\c1scc[n+]1Cc1ccccc1           µM          1.7
11  CCn1c(=O)/c(=C2\Sc3ccc(C)cc3N2C)s/c1=C\c1scc[n+]1Cc1c(Cl)cccc1Cl           µM         0.55
12  CCn1c(=O)/c(=C2\Sc3cc(Cl)ccc3N2C)s/c1=C\c1scc[n+]1Cc1c(Cl)cccc1Cl           µM          1.4
13  CCn1c(=O)/c(=C2\Sc3cc(Cl)ccc3N2C)s/c1=C\c1scc[n+]1Cc1c(C)noc1C           µM          7.6
14  CCn1c(=O)/c(=C2\Sc3cc(SC)ccc3N2C)s/c1=C\c1scc[n+]1Cc1ccccc1Cl           µM         0.75
15  CCn1c(=O)/c(=C2\Sc3cc(Br)ccc3N2C)s/c1=C\c1scc[n+]1Cc1ccc(C(F)(F)F)o1.[Cl-]           µM          3.5
16  CCn1c(=O)/c(=C2\Sc3cc(C)ccc3N2C)s/c1=C\c1scc[n+]1Cc1ccccc1OC           µM         0.96
17  CCn1c(=O)/c(=C2\Sc3cc(C)ccc3N2C)s/c1=C\c1scc[n+]1Cc1ccccc1OC(F)(F)F           µM         0.75
18  CCn1c(=O)/c(=C2\Sc3cc(Cl)ccc3N2C)s/c1=C\c1scc[n+]1Cc1cnc(Cl)s1           µM          8.9
19  CCn1c(=O)/c(=C2\Sc3cc(Cl)ccc3N2C)s/c1=C\c1scc[n+]1Cc1occc1C(=O)OC           µM          2.7
20  CCn1c(=O)/c(=C2\Sc3cc(Cl)ccc3N2C)s/c1=C\c1scc[n+]1Cc1ccccc1OC           µM          1.5
21  CCn1c(=O)/c(=C2\Sc3ccc(C)cc3N2C)s/c1=C\c1scc[n+]1Cc1ccccc1OC(F)(F)F           µM          1.4
22  CCn1c(=O)/c(=C2\Sc3cc(Cl)ccc3N2C)s/c1=C\c1scc[n+]1Cc1csc(NC(C)=O)n1           µM          4.2
23  CCn1c(=O)/c(=C2\Sc3cc(C(C)C)ccc3N2C)s/c1=C\c1scc[n+]1Cc1ccccc1OC(F)(F)F           µM         0.48

====

Tested on: MCF-7
Assay: MTT cell viability assay, MCF-7
Type: cell-based
Conditions: Homo sapiens, MCF7; MTT, 72-hour incubation; read-out: IC50/μM MCF-7
Reported property: IC50 (µM)

In [3]: df
Out[3]:
                                   compound  reported_property  unit_string  assay_value
0  CCn1c(=O)/c(=C2\Sc3cc(OC)ccc3N2C)s/c1=C\c1scc[n+]1CCc1ccccc1Cl [JG-379]               IC50           µM         0.18
1  CCn1c(=O)/c(=C2\Sc3cc(OC)ccc3N2C)s/c1=C\c1scc[n+]1CCc1ccccc1C [JG-398]               IC50           µM         0.24
2  CCn1c(=O)/c(=C2\Sc3cc(Cl)ccc3N2C)s/c1=C\c1scc[n+]1CCc1cccc(Cl)c1 [JG-381]               IC50           µM         0.55
3  CCn1c(=O)/c(=C2\Sc3cc(C)ccc3N2C)s/c1=C\c1scc[n+]1CCc1ccccc1C(F)(F)F [JG-378]               IC50           µM         0.13

====

System: MCF-7
Assay: MTT cell viability assay, MCF-7
Format: cell-based
Details: Homo sapiens, MCF7, 72 h, MTT, 72-hour incubation; read-out: IC50/μM MCF-7
IC50 vs 0.1 µM: less than gives Fulfilled; not less than gives Not fulfilled.

>>> print(df.to_string())
                                 test_smiles          label
 0  CCc1ccc2c(c1)S/C(=c1/s/c(=C\c3scc[n+]3Cc3c(Cl)cccc3Cl)n(CC)c1=O)N2C      Fulfilled
 1  CCn1c(=O)/c(=C2\Sc3cc(Cl)ccc3N2C)s/c1=C\c1scc[n+]1Cc1ccc(Cl)cc1  Not fulfilled
 2  CCn1c(=O)/c(=C2\Sc3cc(Cl)ccc3N2C)s/c1=C\c1scc[n+]1Cc1ccccc1SC(F)(F)F  Not fulfilled
 3  CCn1c(=O)/c(=C2\Sc3ccc(OC)cc3N2C)s/c1=C\c1scc[n+]1Cc1ccccc1OC(F)(F)F  Not fulfilled
 4  CCn1c(=O)/c(=C2\Sc3cc(Cl)ccc3N2C)s/c1=C\c1scc[n+]1Cc1cccc(Cl)c1  Not fulfilled
 5  CCn1c(=O)/c(=C2\Sc3cc(SC)ccc3N2C)s/c1=C\c1scc[n+]1Cc1ccccc1Cl  Not fulfilled
 6  CCn1c(=O)/c(=C2\Sc3cc(Cl)ccc3N2C)s/c1=C\c1scc[n+]1Cc1occc1C(=O)OC  Not fulfilled
 7  CCn1c(=O)/c(=C2\Sc3cc(OC)ccc3N2C)s/c1=C\c1scc[n+]1Cc1ccccc1  Not fulfilled
 8  CCn1c(=O)/c(=C2\Sc3ccc(C)cc3N2C)s/c1=C\c1scc[n+]1Cc1c(Cl)cccc1Cl      Fulfilled
 9  CCn1c(=O)/c(=C2\Sc3cc(Cl)ccc3N2C)s/c1=C\c1scc[n+]1Cc1ccccc1C(=O)OC  Not fulfilled
10  CCn1c(=O)/c(=C2\Sc3cc(C)ccc3N2C)s/c1=C\c1scc[n+]1Cc1ccccc1OC      Fulfilled
11  CCn1c(=O)/c(=C2\Sc3cc(OC)ccc3N2C)s/c1=C\c1scc[n+]1Cc1ccccc1Cl      Fulfilled
12  CCn1c(=O)/c(=C2\Sc3cc(C)ccc3N2C)s/c1=C\c1scc[n+]1Cc1ccccc1OC(F)(F)F      Fulfilled
13  CCn1c(=O)/c(=C2\Sc3ccc(OC)cc3N2C)s/c1=C\c1scc[n+]1Cc1ccccc1  Not fulfilled
14  CCn1c(=O)/c(=C2\Sc3cc(SC)ccc3N2C)s/c1=C\c1scc[n+]1Cc1ccccc1  Not fulfilled
15  CCn1c(=O)/c(=C2\Sc3cc(Cl)ccc3N2C)s/c1=C\c1scc[n+]1Cc1c(Cl)cccc1Cl  Not fulfilled
16  CCn1c(=O)/c(=C2\Sc3ccc(C)cc3N2C)s/c1=C\c1scc[n+]1Cc1ccccc1OC(F)(F)F      Fulfilled
17  CCn1c(=O)/c(=C2\Sc3cc(OC)ccc3N2C)s/c1=C\c1scc[n+]1Cc1ccccc1OC      Fulfilled
18  CCc1ccc2c(c1)S/C(=c1/s/c(=C\c3scc[n+]3Cc3ccc(C(F)(F)F)o3)n(CC)c1=O)N2C.[Cl-]  Not fulfilled
19  C=CCn1c(=O)/c(=C2\Sc3cc(Cl)ccc3N2C)s/c1=C\c1scc[n+]1Cc1ccccc1  Not fulfilled
